System: MV-4-11 cells
Experiment: Inhibition of proliferation of myeloid monocytic leukemia cells MV-4-11 (cell viability assay, 96 h)
Type: cell-based, human
Conditions: read-out: inhibitory activity (IC50) against tumor cells proliferation, MV-4-11
Catalogue of IC50 values
endpoint: IC50

>>> recorded_measurement("O=C1CCN(N2Cc3cc(CN4CCN(c5ccc(C(F)(F)F)cc5)CC4)ccc3C2=O)C(=O)N1")
"50 to 100 nM"
>>> recorded_measurement("O=C1CCN(N2Cc3cc(CN4CCN(c5ccccc5)CC4)ccc3C2=O)C(=O)N1")
"100 to 300 nM"
>>> recorded_measurement("COc1cccc(N2CCN(Cc3ccc4c(c3)CN(N3CCC(=O)NC3=O)C4=O)CC2)c1")
"100 to 300 nM"
>>> recorded_measurement("Cc1cccc(N2CCN(Cc3ccc4c(c3)CN(N3CCC(=O)NC3=O)C4=O)CC2)c1")
"500 to 1000 nM"

---

// reported pIC50 per item
Test system: MV-4-11 cells
Assay: Inhibition of proliferation of myeloid monocytic leukemia cells MV-4-11 (cell viability assay, 96 h)
Type: cell-based, human
Settings: read-out: inhibitory activity (IC50) against tumor cells proliferation, MV-4-11
pIC50: −log10 of the molar value.
endpoint: pIC50

>>> recorded_measurement("O=C1CCN(N2Cc3cc(CN4CCC(c5cccc(Br)c5)CC4)ccc3C2=O)C(=O)N1")
"6.52 to 7.00"
>>> recorded_measurement("O=C1CCN(N2Cc3cc(CN4CCN(c5ccccc5Cl)CC4)ccc3C2=O)C(=O)N1")
"6.00 to 6.30"
>>> recorded_measurement("O=C1CCN(N2Cc3cc(CN4CCN(c5cc(Cl)cc(Cl)c5)CC4)ccc3C2=O)C(=O)N1")
"6.52 to 7.00"
>>> recorded_measurement("O=C1CCN(N2Cc3cc(CN4CCN(c5ccc(Cl)cc5)CC4)ccc3C2=O)C(=O)N1")
"6.00 to 6.30"
